The reported numbers originate from ChEMBL document CHEMBL1126548.

Let's look at some compounds and their measured pKi.
Organism: Rattus norvegicus
Assay: Compound tested for inhibitory activity against [3H]dopamine uptake in synaptosomes from rat caudate nucleus
Set-up: species or system Brain
pKi: −log10 of the molar value.
result_type: pKi

compound: COC(=O)[C@H]1C2C[C@H](OC)[C@H](C[C@@H]1OC(=O)c1ccccc1)N2C (mixture of isomers)
reported: 3.29

compound: COC(=O)[C@H]1C2[C@@H](OC)C[C@H](C[C@@H]1OC(=O)c1ccccc1)N2C (mixture of isomers)
reported: 3.70

compound: COC(=O)[C@H]1C2[C@H](OC)C[C@H](C[C@@H]1OC(=O)c1ccccc1)N2C (mixture of isomers)
reported: 3.96

====

Species: Rattus norvegicus
Assay: Effect on cocaine inhibition of [3H]dopamine uptake at 200 uM

compound: COC(=O)[C@H]1C2[C@@H](OC)C[C@H](C[C@@H]1OC(=O)c1ccccc1)N2C (mixture of isomers)
IC50, nM: 936

====

Species on record: Rattus norvegicus
Assay: Effect on cocaine inhibition of [3H]dopamine uptake
result_type: IC50 (nM)

chemical_structure: COC(=O)[C@H]1[C@@H](OC(=O)c2ccccc2)C[C@@H]2CC[C@H]1N2C
uom: nM
reported: 336

====

Let's look at some compounds and their measured Ki.
Species: Rattus norvegicus
Assay: Compound tested for inhibitory activity against [3H]dopamine uptake in synaptosomes from rat caudate nucleus
Parameters: species or system Brain
result_type: Ki (µM)

compound: COC(=O)[C@@H]1C2[C@H](OC)C[C@H](C[C@@H]1OC(=O)c1ccccc1)N2C (mixture of isomers)
uom: µM
reported: 6.1
//
compound: COC(=O)[C@@H]1C2C[C@H](OC)[C@H](C[C@@H]1OC(=O)c1ccccc1)N2C (mixture of isomers)
uom: µM
reported: 68
//
compound: COC(=O)[C@H]1C2CCC(C[C@@H]1OC(=O)c1ccccc1)N2 (some centres undefined)
uom: µM
reported: 13.8
//
compound: COC(=O)[C@H]1[C@@H](OC(=O)c2ccccc2)C[C@@H]2CC[C@H]1N2C
uom: µM
reported: 0.32

====

Species: Rattus norvegicus
Assay: Binding affinity against [3H]mazindol
Mark True for Ki under 10 µM, False if at or over.

compound: COC(=O)[C@@H]1C2C[C@H](OC)[C@H](C[C@@H]1OC(=O)c1ccccc1)N2C (mixture of isomers)
label_value: False
--
compound: COC(=O)[C@@H]1C2[C@H](OC)C[C@H](C[C@@H]1OC(=O)c1ccccc1)N2C (mixture of isomers)
label_value: True
--
compound: COC(=O)[C@H]1[C@@H](OC(=O)c2ccccc2)C[C@@H]2CC[C@H]1N2C
label_value: True
--
compound: COC(=O)[C@H]1C2CCC(C[C@@H]1OC(=O)c1ccccc1)N2 (some centres not stated)
label_value: False
--
compound: COC(=O)[C@H]1C2[C@H](OC)C[C@H](C[C@@H]1OC(=O)c1ccccc1)N2C (mixture of isomers)
label_value: False
--
compound: COC(=O)[C@H]1C2C[C@H](OC)[C@H](C[C@@H]1OC(=O)c1ccccc1)N2C (mixture of isomers)
label_value: False
--
compound: COC(=O)[C@H]1C2[C@@H](OC)C[C@H](C[C@@H]1OC(=O)c1ccccc1)N2C (mixture of isomers)
label_value: False
